Target: N-SH2 domain of SHP2 (residues 2-111), recombinant (human) (UniProt Q06124)
Assay: fluorescence anisotropy direct binding, labelled peptide titrated with protein
pKd: −log10 of the molar value.
measuredEndpoint: pKd

binder: XGLNYIDLDW (phosphotyrosine (pY) at position 4; N-terminal Cyanine 3 carboxylic acid (Cy3); C-terminal amide) [Cy3-P9W5 (Cy3-GLN-pY-IDLDW)]
assayValue: 7.64
